Would you kindly list IC50 for each of these molecules?
Tested on: A549
assay procedure: Cytotoxicity against human A549 cells by MTT assay
Assay type: functional, cell-based
Hi! Could you send only the number? It should be in µM, unit omitted.

Q) So what IC50 did "CC1=C[C@@H]2/C=C/C[C@H](C)/C=C(\C)[C@@H](O)C(=O)/C=C/C(=O)[C@]23C(=O)N[C@H]2Cc4c([nH]c5ccccc45)[C@@]1(C)[C@@H]23" get with A549?
A) 16.1

Q) A549 / IC50 / "COc1c(O)cc2c(c1CC=C(C)C)C=C(C)OC2" : value?
A) 9.4

Q) Which IC50 is reported with A549 for this entry: "COC(=O)[C@@H]1c2c(oc3cc(C)cc(OC)c3c2=O)C=C[C@H]1O" ?
A) 8.2

* * *

Tested on: OVCAR-3
assay procedure: Cytotoxicity against human OVCAR3 cells assessed as reduction in cell viability after 72 hrs by CyQuant dye-based assay
Format: functional
run parameters: OVCAR-3, 72 h
quantity: pIC50
// returns pIC50 (minus log10 of molar concentration), number only

Q) I have this compound here, "CC1=CC[C@H]2C(C)(C)CCC[C@]2(C)[C@H]1C[C@@]12O[C@@H]1C(=O)C(CO)=C[C@H]2O" , and I need its recorded pIC50.
A) 6.30

* * *

Test system: MDA-MB-231
assay procedure: Cytotoxicity against human MDA-MB-231 cells after 72 hrs by MTT assay
Format: functional, cell-based
run parameters: MDA-MB-231, 72 h
quantity: pEC50
# pEC50 = -log10(concentration in molar units)

Q) Item under review: OCC(O)C(O)C(O)C(O)C(O)O[C@H]1[C@H](O)[C@@H](O)[C@H](O)O[C@@H]1CO (stereo partly specified) . Reported pEC50?
A) 4.03

* * *

So I've got a bunch of compounds here, and I need their IC50 values.
assay procedure: Cytotoxicity against human Tca8113 cells after 72 hrs by MTT assay
Format: functional, cell-based
Answer format: numeric, µM implied, no suffix.

Q) Any idea what its IC50 is? The compound is "C[C@@H]1CC[C@@H]2[C@@H](C)C(=O)O[C@@H]2[C@@]12C=C(CO)CC2"
A) 10

Q) Name the recorded IC50 for CC(C)(O)C(O)COc1ccc(CCO)cc1 (configuration not stated) .
A) 26

* * *

System: MDA-MB-435
assay procedure: Cytotoxicity against human MDA-MB-435 cells by MTT assay
Type: functional, cell-based
Please respond with reported pIC50 for every item in the list.
pIC50 is defined as minus the log10 of a concentration measured in mol/L.

Q) Quick one: pIC50 of "CC1=C[C@@H]2/C=C/C[C@H](C)/C=C(\C)CC(=O)/C=C/C(=O)[C@]23C(=O)N[C@@H](Cc2c[nH]c4ccccc24)[C@@H]3[C@@H]1C" ?
A) 4.43

Q) Which pIC50 is listed for "CC1=C[C@@H]2/C=C/C[C@H](C)/C=C(\C)[C@@H](O)C(=O)/C=C/C(=O)[C@]23C(=O)N[C@H]2Cc4c([nH]c5ccccc45)[C@@]1(C)[C@@H]23" ?
A) 5.12

Q) pIC50 for "CC1=C[C@@H]2/C=C/C[C@H](C)/C=C(\C)C(=O)C(=O)/C=C/C(=O)[C@]23C(=O)N[C@H]2Cc4c([nH]c5ccccc45)[C@@]1(C)[C@@H]23" ?
A) 5.33

* * *

assay procedure: Antiproliferative activity against HUVEC assessed as growth inhibition
Assay type: cell-based
run parameters: human, HUVEC cells
quantity: GI50 (µM)
Only the number, expressed in µM, is required.

Q) Name the recorded GI50 for "O=C1c2cccc(O)c2[C@H]2C[C@@H]1c1ccc3cccc(O)c3c1O2" .
A) 98.4

* * *

Provide the recorded IC50 for the entries that follow.
Tested on: L02
assay procedure: Cytotoxicity against human L02 cells by MTS assay
Type: cell-based

Q) Recall the recorded IC50 for "COC(=O)[C@]1(Cc2ccc(O)c(CC=C(C)C)c2)OC(=O)C(O)=C1c1ccccc1" with L02 and state it.
A) < 10 µM

Q) Recorded IC50 for "O=C1CC[C@@H](c2ccc(O)c3c2C(=O)CC[C@H]3O)c2cccc(O)c21" with L02, please?
A) 1 to 20 µM

Q) # query: IC50 | item "CO[C@H]1CCC(=O)c2c([C@@H]3CCC(=O)c4c(O)cccc43)ccc(O)c21" | system: L02
A) 1 to 20 µM

* * *

System: HepG2
assay procedure: Cytotoxicity against human HepG2 cells by MTT assay
Format: functional, cell-based
quantity: IC50

Q) Data request, read-out IC50, for "COC(=O)[C@]1(Cc2ccc(O)c(CC=C(C)C)c2)OC(=O)C(O)=C1c1ccc(OC)cc1"
A) < 10 µM

Q) For the compound "COc1cc2c(c3c1OC(C)(C)CC3=O)C[C@@H](C)OC2=O" , what IC50 is on record?
A) 4 µM

Q) For "COc1c(O)cc2c(c1CC=C(C)C)C=C(C)OC2" , what is its reported IC50?
A) 8.8 µM

Q) Given the entry "COc1ccc2c(c1CC=C(C)C)C=C(C)OC2" , report its measured IC50.
A) 8.2 µM

Q) Data request, read-out IC50, for COc1cc(O)c2c(c1)C=C([C@H](O)[C@H](O)C(Cl)Cl)OC2O (stereo partly specified)
A) 39.6 µg/mL

Q) IC50 lookup needed for "COc1cc(OC)c2c(c1CC=C(C)C)C[C@@H](C)OC2=O" , thanks.
A) 9.4 µM

Q) Which value of IC50 has been reported for "COC(=O)[C@]1(Cc2ccc(OC)c(CC=C(C)C)c2O)OC(=O)C(O)=C1c1ccc(O)cc1" in the records?
A) 4.8 µM

Q) Dear colleague, I am looking for the recorded IC50 of the following compound: "COC(=O)[C@]1(Cc2ccc(O)c(CC=C(C)C)c2)OC(=O)C(O)=C1c1ccccc1"
A) < 10 µM

Q) What value of measured IC50 is listed for "CCCCC[C@@H]1CC[C@H](C)CCCCC(=O)N[C@@H](Cc2ccc(OCC=C(C)C)cc2)C(=O)O1" ?
A) 36.6 µM

Q) Give its IC50 value. Item: "COC(=O)[C@]1(Cc2ccc(OC)c(CC=C(C)C)c2)OC(=O)C(O)=C1c1ccccc1"
A) < 10 µM

Q) Find the recorded IC50 belonging to "COC(=O)[C@]1(Cc2ccc(O)c(CC(C)=O)c2)OC(=O)C(O)=C1c1ccc(OC)cc1" and report it.
A) < 10 µM
